System: C2C12 myoblasts
Test: MTT cell viability assay in C2C12 myoblasts
Details: MTT, Blasts
Experimental: The mouse myoblast C2C12 cell line (ATCC, CRL-1772) was cultured at 37° C. in a 5% CO2 humidified incubator in Dulbecco's modified Eagle medium (DMEM; Thermo Fisher Scientific). […] Viability of QSM was assessed using the 3-(4,5-dimethylthiazol-2-yl)-2,5-diphenyltetrazolium bromide (MTT) assay. […] Absorbance was measured at 570 nm using a microplate reader (Thermo Fisher). […]
Where no end group is shown, it is not given here.
READOUT_TYPE: IC50 (µM)

                 substance  readout_type  reported_value
0  SIFTLVA [Q184, SIFTLVA]          IC50            1.49
